- Tested on: HeLa
- protocol notes: Cytotoxicity against human HeLa cells after 72 hrs by CCK8 assay
- Type: functional, cell-based
property: pIC50
# pIC50 is unitless: minus log10 of the molar concentration; print number only

INSERT INTO assay_data (item_smiles, experimental_value) VALUES
  ('C=C[C@]1(C)C=C2C(=O)C(O)=C3[C@@]4(OC)[C@H](C[C@H](OC(C)=O)[C@]3(C)COC(=O)C(C)C)C[C@]24CC1', 5.22);

Continue with the next compound.
Which measured pIC50 belongs to C=C[C@]1(C)C=C2C(=O)C(O)=C3[C@](C)(COC(=O)CC)[C@H](OC(C)=O)C[C@H]4C[C@@]34[C@@]2(O)CC1 , tested on HeLa?
5.59

====

- Tested on: HeLa
- protocol notes: Cytotoxicity against human HeLa cells after 72 hrs by CCK8 assay
- Format: functional, cell-based
property: pIC50
# pIC50 is unitless: minus log10 of the molar concentration; print number only

INSERT INTO results (item_smiles, experimental_value) VALUES
  ('C=C[C@]1(C)C=C2C(=O)C(O)=C3[C@](C)(COC(=O)C(C)C)[C@H](OC(C)=O)C[C@H]4C[C@@]34[C@@]2(O)CC1', 6.15);

Which measured pIC50 belongs to C=C[C@]1(C)C=C2C(=O)C(O)=C3[C@@]4(O)[C@H](C[C@H](OC(C)=O)[C@]3(C)COC(=O)C(C)C)C[C@]24CC1 , tested on HeLa?
4.88

Next molecule: C=C[C@]1(C)C=C2C(=O)C(O)=C3[C@](C)(COC(=O)C(C)C)[C@H](O)C[C@H]4C[C@@]34[C@@]2(O)CC1
5.92

Next molecule: C=C[C@]1(C)C=C2C(=O)C(O)=C3[C@](C)(COC(C)=O)[C@H](OC(C)=O)C[C@H]4C[C@@]34[C@@]2(O)CC1
5.51

====

- Tested on: HCT-116
- protocol notes: Cytotoxicity against human HCT116 cells after 72 hrs by CCK8 assay
- Format: functional, cell-based
- test parameters: HCT-116, 72 h
property: IC50 (nM)
Value expressed in nM; do not type the unit.

INSERT INTO assay_data (item_smiles, experimental_value) VALUES
  ('C=C[C@]1(C)C=C2C(=O)C(O)=C3[C@](C)(COC(=O)C(C)C)[C@H](O)C[C@H]4C[C@@]34[C@@]2(O)CC1', 1300);

Requested field: IC50. Item: C=C[C@]1(C)C=C2C(=O)C(=O)[C@H]3[C@](C)(COC(=O)C(C)C)[C@H](OC(C)=O)C[C@H]4C[C@]43[C@@]2(O)CC1
29400

Next molecule: C=C[C@]1(C)C=C2C(=O)C(O)=C3[C@](C)(COC(=O)CC)[C@H](OC(C)=O)C[C@H]4C[C@@]34[C@@]2(O)CC1
1900
